Entry source: PubChem BioAssay (NCATS)

assay.explanation: qHTS profiling for inhibitors of Plasmodium falciparum proliferation (AID 504749);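 also: 0% = DMSO vehicle and full inhibition = artemisinin control; nearly all actives have a fitted effect of over 60% in size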
settings: P. falciparum in erythrocytes, SYBR Green DNA, 72 h; at 12.8 µM (top of the series); parasite line A
Results filed as inconclusive are left out. Calls of active or inactive are those of the source. Calls follow the shape of the dose curve; as a rule, active = well fitted inhibition curve with a large enough effect; inconclusive = small, poorly fitted or top-dose-only effect; inactive = flat fitted curve, though single readings scatter.
property.measured: activity, negative = inhibition

Incoming: Can you look up the measured activity, negative = inhibition of CC1(C)O[C@@H]2C[C@H]3[C@H]4C[C@H](F)C5=CC(=O)C=C[C@@]5(C)[C@@H]4[C@H](O)C[C@]3(C)[C@]2(C(=O)CO)O1 for me?
Outgoing: -1.94% (inactive)

Incoming: Can you look up the measured activity, negative = inhibition of CO[C@H]1C[C@@H](O[C@@H]2[C@H](C)[C@H](O[C@@H]3O[C@@H](C)C[C@@H](N(C)C)[C@@H]3O)[C@H](C)C[C@]3(CO3)C(=O)[C@H](C)[C@H](O)[C@H](C)[C@H](C)OC(=O)[C@@H]2C)O[C@@H](C)[C@H]1O for me?
Outgoing: -15.5% (inactive)

Incoming: Can you look up the measured activity, negative = inhibition of C[C@@H](CN(C)C)CN1c2ccccc2CCc2ccccc21 for me?
Outgoing: -6.2% (inactive)

Incoming: Can you look up the measured activity, negative = inhibition of NC(=O)OC[C@H](O)COc1ccc(Cl)cc1 for me?
Outgoing: -2.39% (inactive)

###

Please respond with reported activity, negative = inhibition for every item in the list.
assay.explanation: Stat Signaling Pathway (AID 446);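 also: ME-180 cervical cancer cells given 40 pM IL-6 alongside compound; SIE-controlled beta-lactamase reporter measured as 460/530 nm FRET emission ratio; % is scaled to controls: 0 for no effect and ±100 for the full control effect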
settings: ME-180 (cervical carcinoma) SIE beta-lactamase reporter, IL-6 stimulated, 5 h; at 7.69 µM (top of the series) unless noted
Inconclusive results are not listed.
Use % as the unit, but write only the number.

Incoming: Can you look up the measured activity, negative = inhibition of O=C(c1cccc(F)c1)N1CCC2(CC1)CN(c1ccncc1)C2 for me?
Outgoing: 1.58

Incoming: Can you look up the measured activity, negative = inhibition of c1ccc(CNc2ncnc3ccc(-c4ccoc4)cc23)cc1 for me?
Outgoing: -19.6

Incoming: Can you look up the measured activity, negative = inhibition of COc1ccc(CNc2nc(-c3ccc(N(C)C)cc3)nc3ccccc23)c(OC)c1 for me?
Outgoing: 23.2

Incoming: Can you look up the measured activity, negative = inhibition of c1ccc(C(c2ccccc2)N2CCCC3(CCNCC3)C2)cc1 for me?
Outgoing: 4.89

###

target.system: Cytochrome P450 1A2 (Homo sapiens) (UniProt P05177)
Sequence (P05177 whole entry, looked up): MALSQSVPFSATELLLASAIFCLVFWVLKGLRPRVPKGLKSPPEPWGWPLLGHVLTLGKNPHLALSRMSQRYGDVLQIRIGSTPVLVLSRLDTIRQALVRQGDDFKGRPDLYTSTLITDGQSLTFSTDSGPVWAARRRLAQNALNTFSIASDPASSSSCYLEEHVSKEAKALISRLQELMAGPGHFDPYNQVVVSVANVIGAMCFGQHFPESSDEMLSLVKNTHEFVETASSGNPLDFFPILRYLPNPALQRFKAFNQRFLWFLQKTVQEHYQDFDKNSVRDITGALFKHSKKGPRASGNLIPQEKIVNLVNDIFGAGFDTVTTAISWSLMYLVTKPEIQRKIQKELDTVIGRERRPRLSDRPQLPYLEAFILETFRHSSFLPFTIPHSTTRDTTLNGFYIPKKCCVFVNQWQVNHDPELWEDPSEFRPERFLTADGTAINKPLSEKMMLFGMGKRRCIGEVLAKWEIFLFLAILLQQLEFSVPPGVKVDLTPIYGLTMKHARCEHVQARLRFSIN
assay.explanation: p450-cyp1a2 (AID 410)
settings: recombinant CYP1A2, luciferin-ME demethylation, luminescence; series mostly up to 57 µM
Inconclusive results are not listed. The source made the active and inactive calls. The call rests on the fitted dose curve.
Choose one outcome from this list and give only that: True = active, False = inactive

Incoming: Dear all, I need the recorded test outcome for CN(C)C(=O)c1ccc(-c2cncnc2NCc2cccs2)cc1 , thank you.
Outgoing: True

Incoming: Dear all, I need the recorded test outcome for CCCN[C@@H](C)C(=O)Nc1ccccc1C , thank you.
Outgoing: False

Incoming: Dear all, I need the recorded test outcome for O=c1c(CCc2ccccc2)nc2cncnc2n1-c1ccccc1 , thank you.
Outgoing: True

Incoming: Dear all, I need the recorded test outcome for COc1ccccc1-c1nccc(NCc2cccc(C)c2)n1 , thank you.
Outgoing: True

Incoming: Dear all, I need the recorded test outcome for CCNc1ncc2nc(-c3cccs3)c(=O)n(-c3ccccc3)c2n1 , thank you.
Outgoing: True
